Source listed as PubChem BioAssay (NCI).

system: ACHN renal; assay: NCI tumour cell line growth inhibition, 48 h
Measured Attribute: TGI (µM)
Please give a number only; it is taken to be in µM.

{"columns": ["Chemical Smiles", "Uom", "TGI"],
 "data": [
  ["Cc1ccc(S(=O)(=O)N2CCN(CCN(C)CCN3CCN(S(=O)(=O)c4ccc(C)cc4)CC3)CC2)cc1", "µM", 32.7],
  ["CC1(C)C=CC[C@]2(C)[C@H]3CC[C@@H]4[C@H]5[C@H](C(=O)/C=C/c6cccnc6)CC[C@]5(CO)CC[C@@]4(C)[C@]3(C)CC[C@@H]12", "µM", 2.35]
]}

Now for another entry.
Item: Clc1nc(Oc2ccccc2)nc(-c2cn(-c3ccccc3)c3ccccc23)n1 | TGI: 21.1

====

test system: SF-295 CNS; assay: NCI tumour cell line growth inhibition, 48 h; in the data active = GI50 below about 0.43 µM; inactive = the rest
// classify into class 1 (active), class 0 (inactive)

For orientation, consider the following solved cases.
{"columns": ["Molecule", "Group"],
 "data": [
  ["CC1=CC[C@@H]2CC[C@]3(C)[C@H](CC[C@@H]4[C@@]5(C)CCCNC(C)(C)[C@@H]5CC[C@]43C)[C@H]2[C@@H]1C", "class 0"],
  ["Nc1c(C(=O)c2ccccc2)sc2nc(-c3cccs3)ccc12", "class 1"],
  ["Clc1nc(Oc2ccccc2)nc(-c2cn(-c3ccccc3)c3ccccc23)n1", "class 0"],
  ["O=[N+]([O-])c1ccc2[nH]cc(-c3c4ccsc4cc4[nH]c5ccc([N+](=O)[O-])cc5c34)c2c1", "class 0"]
]}

Attention now turns to another entry.
# input # outcome recorded in this test, key = C=CC(=O)N1CCCC(n2nc(-c3ccc(Oc4ccccc4)cc3)c3c(N)ncnc32)C1 (stereo not given)
# output class 0

====

system: K-562 leukemia; assay: NCI tumour cell line growth inhibition, 48 h
Measured Attribute: TGI

{"columns": ["Compound", "Data Value"],
 "data": [
  ["CC(=O)CC1CCC(=O)CCC(=O)OC(CC(C)=O)CCC(=O)CCC(=O)O1 (centres undefined)", "> 100 µM"],
  ["COc1ccc(NC2Oc3cc4c(cc3C(c3cc(OC)c(O)c(OC)c3)C2C)OCO4)cc1 (centres undefined)", "12.3 µM"],
  ["CSc1ncc2c(n1)-c1ccccc1OC2N1CCCC1 (centres undefined)", "> 100 µM"]
]}

Now for another entry.
Item: O=C(Nc1ccc(Cl)cc1)Nc1ccc(Cl)c(Cl)c1 | TGI: > 100 µM

====

system: RPMI-8226 leukemia; test: NCI tumour cell line growth inhibition, 48 h
The reader will find reported TGI values listed item by item below.

Example compounds with recorded TGI:
{"columns": ["Compound", "Assay System", "TGI"],
 "data": [
  ["N#CC1=CNc2sccc2S1(=O)=O", "RPMI-8226 leukemia", "> 100 µM"],
  ["Cc1cc2nc3c(C(OC4OC(CO)C(O)C(O)C4O)C(O)CO)nn(-c4ccccc4)c3nc2cc1C (stereo not given)", "RPMI-8226 leukemia", "> 100 µM"],
  ["NC(N)=N/N=C/c1nc2sccn2c1[N+](=O)[O-]", "RPMI-8226 leukemia", "> 100 µM"]
]}

Item: C[CH2][Sn]1([CH2]C)[O]C(=O)[O][Sn]([CH2]C)([CH2]C)[O]1 | TGI: 47.6 µM

Item: CSC1SCC2C(=O)N(C)C3(CC3C)C(=O)OCC(NC(=O)c3nc4ccccc4cc3O)C(=O)NC(C)C(=O)N(C)C1C(=O)N(C)C1(CC1C)C(=O)OCC(NC(=O)c1nc3ccccc3cc1O)C(=O)NC(C)C(=O)N2C (stereo not given) | TGI: < 0.0001 µM

====

tested on: KM12 colon; assay: NCI tumour cell line growth inhibition, 48 h
The reader will find reported TGI values listed item by item below.

Example molecules with recorded TGI:
{"columns": ["Molecule", "Assay System", "Measured Attribute", "Data Value"],
 "data": [
  ["Cc1ccc(O)c(C2=NNC(c3cccc(Br)c3)C2)c1 (stereo not drawn)", "KM12 colon", "TGI", "> 100 µM"],
  ["COc1ccc(OC)c2cc(Cc3ccc(N(C)C)cc3)c(=O)c(Cc3ccc(N(C)C)cc3)cc12", "KM12 colon", "TGI", "> 100 µM"]
]}

Item: CCOC(=O)c1sc2c(c1OC(=O)c1ccccc1)c(=O)n(-c1ccccc1)c(=S)n2-c1ccccc1 | TGI: > 100 µM

====

tested on: SN12C renal; experiment: NCI tumour cell line growth inhibition, 48 h
Measured Attribute: TGI

Example compounds with recorded TGI:
{"columns": ["Compound", "Assay System", "Data Value"],
 "data": [
  ["CCOC(=O)c1c(N2CCOCC2)[nH]c(=O)c(C(c2ccc(OC)cc2)c2c(O)c(C(=O)OCC)c(N3CCOCC3)[nH]c2=O)c1O", "SN12C renal", "> 100 µM"],
  ["CSC(=NC1=NC(C(F)(F)F)(C(F)(F)F)N=C(c2ccccc2)O1)SC", "SN12C renal", "42.9 µM"],
  ["CC(=O)O[C@H]1C(N(C)C(=O)c2ccccc2)CC[C@]2(C)C3CC[C@@]4(C)C(CC(O)[C@@H]4C(C)N(C)C)[C@@H]3CCC12 (stereo partly specified)", "SN12C renal", "> 100 µM"],
  ["CC(=O)NC1=N/C(=C/c2cc([N+](=O)[O-])ccc2O)CN1C", "SN12C renal", "> 100 µM"],
  ["O=C(Nc1cccc(-c2cn3ccccc3n2)c1)c1ccncc1", "SN12C renal", "> 100 µM"]
]}

Item: NC(=O)CC(Nc1ncc2c(n1)-c1ccccc1OC2)C(=O)O (stereo unspecified) | TGI: > 100 µM

====

tested on: OVCAR-4 ovarian; test: NCI tumour cell line growth inhibition, 48 h
The reader will find reported TGI values listed item by item below.

{"columns": ["Compound", "Data Value"],
 "data": [
  ["CN1CCN(CCSC2Cc3cc(Cl)ccc3Sc3ccccc32)CC1 (stereo not given)", "18.2 µM"]
]}

Item: Cc1nc(N)sc1C(=O)/C=C/c1ccc(/C=C/C(=O)c2sc(NC(=O)CCCCCCCCC(=O)Nc3nc(C)c(C(=O)/C=C/c4ccc(/C=C/C(=O)c5sc(N)nc5C)cc4)s3)nc2C)cc1 | TGI: > 100 µM

Item: NC(N)=N/N=C(/c1nc2ccc([N+](=O)[O-])cc2[nH]c1=O)C(O)c1ccco1 (stereo not given) | TGI: > 100 µM

Item: CN1CC(c2ccccc2)N(CCCCN2CC(c3ccccc3)N(C)CC2c2ccccc2)CC1c1ccccc1 (stereo not given) | TGI: > 100 µM

Item: O=C(Oc1ccc(O)c2c(=O)n3c(cc12)[nH]c1ccccc13)c1ccccc1 | TGI: > 100 µM

====

system: MALME-3M melanoma; assay: NCI tumour cell line growth inhibition, 48 h
Measured Attribute: TGI

Example compounds with recorded TGI:
{"columns": ["Compound", "Measured Attribute", "Data Value"],
 "data": [
  ["CC(=O)CC1CCC(=O)CCC(=O)OC(CC(C)=O)CCC(=O)CCC(=O)O1 (stereo not given)", "TGI", "> 100 µM"],
  ["CCOC(=O)C(C)(C)Oc1ccc2c(=O)cc(-c3ccc(Cl)cc3)oc2c1", "TGI", "> 100 µM"],
  ["N#CCCc1nc2ccc(Br)cc2c(=O)n1CCO", "TGI", "> 100 µM"]
]}

Item: COc1c/c(=C2/C=c3ccccc3=N2)[nH]/c1=C/c1[nH]c(C)cc1C | TGI: 1.62 µM

Item: O=C(C(O)c1cn(Cc2ccccc2)c2ccccc12)N1CCCCC1 (stereo not given) | TGI: > 100 µM

====

test system: HCT-15 colon; assay: NCI tumour cell line growth inhibition, 48 h
Measured Attribute: TGI

Example compounds with recorded TGI:
{"columns": ["Compound", "Assay System", "TGI"],
 "data": [
  ["O=c1cc(-c2ccccc2)[nH]c2cccc(S)c12", "HCT-15 colon", "> 100 µM"],
  ["NC(=O)CC(Nc1ncc2c(n1)-c1ccccc1OC2)C(=O)O (stereo not given)", "HCT-15 colon", "> 100 µM"],
  ["Cc1cc(S(=O)(=O)Nc2nc(N)nc(N3N=CCC3C)n2)c(S)cc1Cl (stereo not given)", "HCT-15 colon", "> 10 µM"],
  ["COc1ccc(-c2c(C3=NCCN3)nnn2-c2ccccc2)cc1", "HCT-15 colon", "> 100 µM"]
]}

Now for another entry.
So the reported TGI for CN1CC(c2ccccc2)N(CCCCN2CC(c3ccccc3)N(C)CC2c2ccccc2)CC1c1ccccc1 (stereo not given) , on HCT-15 colon, turned out to be > 100 µM

====

tested on: SK-MEL-28 melanoma; experiment: NCI tumour cell line growth inhibition, 48 h
The reader will find reported TGI values listed item by item below.

{"columns": ["Compound", "TGI"],
 "data": [
  ["O=c1oc2ccccc2c(O)c1/C=N\\c1nc(-c2ccccc2)cs1", "31.1 µM"],
  ["O=C(Nc1cccc(-c2cn3ccccc3n2)c1)c1ccncc1", "> 100 µM"],
  ["COC1=CC23C=CC1[C@@H](c1ccccc1)C2=C(C)C(=O)N3C(=O)NC1CCCCC1 (stereo partly drawn)", "42.2 µM"],
  ["CCOC(=O)C(C(=O)Cc1ccccc1)c1ccccc1 (stereo not drawn)", "> 100 µM"],
  ["CC1CC(c2ccccc2)=Nc2ccccc2S1(=O)=O (stereo not drawn)", "29.8 µM"],
  ["C=CCc1cc2cccc(OC)c2oc1=O", "> 100 µM"],
  ["CCN(CC)CCC1CC/C(=C\\c2ccc(OC)cc2)C1=O (stereo not drawn)", "> 100 µM"]
]}

Now for another entry.
Item: Clc1nc(Oc2ccccc2)nc(-c2cn(-c3ccccc3)c3ccccc23)n1 | TGI: 12.1 µM
